Target protein (sequence): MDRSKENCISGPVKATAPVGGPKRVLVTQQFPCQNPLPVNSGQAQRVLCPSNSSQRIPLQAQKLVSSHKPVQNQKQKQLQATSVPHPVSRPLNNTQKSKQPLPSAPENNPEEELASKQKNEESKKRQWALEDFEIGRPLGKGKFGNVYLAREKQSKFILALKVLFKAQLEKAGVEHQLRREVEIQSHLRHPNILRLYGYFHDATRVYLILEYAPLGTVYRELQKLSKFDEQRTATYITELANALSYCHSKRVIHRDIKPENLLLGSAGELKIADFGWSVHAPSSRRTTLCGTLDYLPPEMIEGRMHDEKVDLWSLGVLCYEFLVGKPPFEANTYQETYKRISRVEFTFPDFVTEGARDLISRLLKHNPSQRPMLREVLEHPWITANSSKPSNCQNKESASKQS

>  <Compound>
O=C(Nc1cccc(Nc2ccnc(Nc3cccc(C(F)(F)F)c3)n2)c1)C1CC1

>  <Quantity unit>
nM

>  <IC50>
931

$$$$
